The measurements presented in this section are drawn from BigSolDB 2.1.

Details: in ethanol, 288.15 K
Observable: solubility (mole fraction)

INSERT INTO assay_data (structure_smiles, number) VALUES
  ('O=c1ccc2ccccc2o1', 0.0205);

* * *

Conditions: in methanol, 293.15 K
Observable: solubility (mole fraction)

INSERT INTO assay_data (structure_smiles, number) VALUES
  ('O=c1ccc2ccccc2o1', 0.05);

* * *

Settings: in n-propanol, 318.15 K
Observable: solubility (mole fraction)

INSERT INTO assay_data (structure_smiles, number) VALUES
  ('O=c1ccc2ccccc2o1', 0.33);

* * *

Details: in n-propanol, 288.15 K
Observable: solubility (mole fraction)

INSERT INTO results (structure_smiles, number) VALUES
  ('O=c1ccc2ccccc2o1', 0.0172);
